METHOD: Kinetic solubility of compound
Assay type: physicochemical
MEASUREMENT_PARAMETERS: read-out: Kinetic_solubility
Assign class by solubility kinetic: not lower than 200 µg/mL means label 1; lower than 200 µg/mL means label 0.

Look over these answered cases.
# SMILES_NOTATION, QUALITATIVE_LABEL
records = [
    ("Cc1cc(C)n(-c2cccc([C@H](CC(=O)O)CN3CC[C@@](F)(CCc4ccc5c(n4)NCCC5)C3)c2)n1", "label 1"),
    ("COCCOc1cccc([C@H](CC(=O)O)CN2CC[C@@](F)(CCc3ccc4c(n3)NCCC4)C2)c1", "label 0"),
    ("O=C(O)C[C@H](CN1CC[C@@](F)(CCc2ccc3c(n2)NCCC3)C1)c1cccc(N2CCOCC2)c1", "label 1"),
    ("O=C(O)C[C@H](CN1CC[C@@](F)(CCc2ccc3c(n2)NCCC3)C1)c1cccc(O[C@@H]2CCOC2)c1", "label 1"),
]

Continue with the next compound.
Assess whether reported solubility kinetic for `O=C(O)C[C@H](CN1CC[C@@](F)(CCc2ccc3c(n2)NCCC3)C1)c1cccc(OC2CCOCC2)c1` sits at 200 µg/mL or higher. label 1

----------
EXPERIMENTAL_TARGET: Integrin alpha-V/beta-6 (Homo sapiens, UniProt P06756+P18564)
Sequence (P06756 31-889 limits assumed): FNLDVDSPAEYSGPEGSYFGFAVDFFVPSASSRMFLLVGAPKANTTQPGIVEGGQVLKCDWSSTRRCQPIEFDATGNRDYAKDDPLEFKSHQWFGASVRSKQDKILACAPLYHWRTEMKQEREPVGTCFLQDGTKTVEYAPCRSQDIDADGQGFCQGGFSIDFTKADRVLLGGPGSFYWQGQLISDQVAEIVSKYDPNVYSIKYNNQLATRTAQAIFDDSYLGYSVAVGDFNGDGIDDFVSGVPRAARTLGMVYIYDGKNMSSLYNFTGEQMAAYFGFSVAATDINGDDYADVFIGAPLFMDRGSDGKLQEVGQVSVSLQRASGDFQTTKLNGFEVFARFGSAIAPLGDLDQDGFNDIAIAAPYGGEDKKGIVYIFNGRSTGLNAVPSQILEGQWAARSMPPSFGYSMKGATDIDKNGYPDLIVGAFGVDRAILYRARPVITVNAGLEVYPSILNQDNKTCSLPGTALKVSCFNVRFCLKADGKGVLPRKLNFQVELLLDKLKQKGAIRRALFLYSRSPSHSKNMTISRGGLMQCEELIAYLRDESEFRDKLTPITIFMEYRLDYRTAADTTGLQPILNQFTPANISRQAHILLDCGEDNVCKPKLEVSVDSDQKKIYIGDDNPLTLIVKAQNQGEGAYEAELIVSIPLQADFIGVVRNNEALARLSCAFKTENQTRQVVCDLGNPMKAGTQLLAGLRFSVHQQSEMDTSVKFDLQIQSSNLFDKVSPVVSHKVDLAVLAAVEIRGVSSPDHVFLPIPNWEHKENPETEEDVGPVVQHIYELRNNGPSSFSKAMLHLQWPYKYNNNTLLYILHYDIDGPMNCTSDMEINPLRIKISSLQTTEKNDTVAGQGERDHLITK
Sequence (P06756 891-1048 limits assumed): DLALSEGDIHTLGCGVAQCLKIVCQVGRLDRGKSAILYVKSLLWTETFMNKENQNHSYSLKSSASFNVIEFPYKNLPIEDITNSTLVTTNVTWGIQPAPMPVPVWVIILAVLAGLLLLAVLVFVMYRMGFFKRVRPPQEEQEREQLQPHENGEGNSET
Sequence (P18564 22-788 limits assumed): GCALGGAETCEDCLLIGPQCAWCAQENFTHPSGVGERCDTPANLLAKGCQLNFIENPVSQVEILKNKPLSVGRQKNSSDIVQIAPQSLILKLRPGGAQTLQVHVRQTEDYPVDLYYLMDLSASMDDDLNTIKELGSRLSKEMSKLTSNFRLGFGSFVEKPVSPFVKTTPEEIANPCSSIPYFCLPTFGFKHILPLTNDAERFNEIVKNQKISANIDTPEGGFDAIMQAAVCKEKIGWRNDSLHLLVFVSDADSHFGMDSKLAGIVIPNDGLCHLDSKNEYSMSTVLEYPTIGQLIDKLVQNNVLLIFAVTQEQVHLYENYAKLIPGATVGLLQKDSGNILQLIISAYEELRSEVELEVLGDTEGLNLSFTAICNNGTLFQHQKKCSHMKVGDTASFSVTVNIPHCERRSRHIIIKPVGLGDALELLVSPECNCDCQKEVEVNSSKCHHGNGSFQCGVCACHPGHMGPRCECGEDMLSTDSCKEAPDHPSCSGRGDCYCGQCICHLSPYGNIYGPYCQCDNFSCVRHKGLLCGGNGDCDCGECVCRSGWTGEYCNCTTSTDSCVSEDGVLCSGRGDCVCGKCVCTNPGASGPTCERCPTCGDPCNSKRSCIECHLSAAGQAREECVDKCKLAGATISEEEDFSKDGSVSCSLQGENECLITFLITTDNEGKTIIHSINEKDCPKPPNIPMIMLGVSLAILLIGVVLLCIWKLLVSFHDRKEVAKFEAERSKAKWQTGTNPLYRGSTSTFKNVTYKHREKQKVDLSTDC
METHOD: Binding affinity to Integrin alphaVbeta6 (unknown origin)
Assay type: protein-complex assay
METRIC_NAME: pIC50
Numbers only, as −log10 of the molar value.

See these solved cases before continuing.
# MOLECULE, pIC50
data = [
    ("O=C(O)C[C@H](CN1CCC(F)(F)C(CCc2ccc3c(n2)NCCC3)C1)c1cccc(N2CCOCC2)c1 (stereo in doubt; 2b)", 6.30),
    ("O=C(O)C[C@H](CN1CCC(F)(F)C(CCc2ccc3c(n2)NCCC3)C1)c1cccc(N2CCOCC2)c1 (stereo in doubt; 2a)", 5.70),
]

Record pIC50 per entry; entries follow.
1. O=C(O)C[C@H](CN1CCCC(F)(CCc2ccc3c(n2)NCCC3)C1)c1cccc(N2CCOCC2)c1 (stereo in doubt; 4a)
2. O=C(O)C[C@H](CN1CC(CCc2ccc3c(n2)NCCC3)CC(F)(F)C1)c1cccc(N2CCOCC2)c1 (stereo in doubt; 3a)
3. Cc1cc(C)n(-c2cccc([C@H](CC(=O)O)CN3CC[C@@](F)(CCc4ccc5c(n4)NCCC5)C3)c2)n1
4. O=C(O)C[C@H](CN1CCCC(F)(CCc2ccc3c(n2)NCCC3)C1)c1cccc(N2CCOCC2)c1 (stereo in doubt; 4b)
5. O=C(O)C[C@H](CN1CC(CCc2ccc3c(n2)NCCC3)CC(F)(F)C1)c1cccc(N2CCOCC2)c1 (stereo in doubt; 3b)

1. 7.30
2. 6.20
3. 8.00
4. 6.70
5. 7.10

----------
I'd appreciate it if you could supply CLH values for the items below.
METHOD: Metabolic stability in Wistar rat Hepatocyte assessed as clearance measured upto 60 mins by LC-MS/MS analysis
Format: ADME, cell-based
MEASUREMENT_PARAMETERS: hepatocytes, 1 h
Give bare numbers, in mL/min/g.

Known results for compounds:
# SMILES_NOTATION, RESULT_UNITS, CLH
rows = [
    ("O=C(O)C[C@H](CN1CC[C@@](F)(CCc2ccc3c(n2)NCCC3)C1)c1cccc(OC2CCOCC2)c1", "mL/min/g", 1.6),
    ("Cc1cc(C)n(-c2cccc([C@H](CC(=O)O)CN3CC[C@@](F)(CCc4ccc5c(n4)NCCC5)C3)c2)n1", "mL/min/g", 13.75),
]

Next item in the queue.
Name the recorded CLH of the item `O=C(O)C[C@H](CN1CC[C@@](F)(CCc2ccc3c(n2)NCCC3)C1)c1cccc(O[C@@H]2CCOC2)c1` in your answer. 1.4
